- TARGET: Induced myeloid leukemia cell differentiation protein Mcl-1 [K194A,K197A,R201A] (Homo sapiens, UniProt Q07820, K194A/K197A/R201A)
- Construct: gene MCL1
- Sequence (Q07820 whole entry K194A/K197A/R201A, looked up): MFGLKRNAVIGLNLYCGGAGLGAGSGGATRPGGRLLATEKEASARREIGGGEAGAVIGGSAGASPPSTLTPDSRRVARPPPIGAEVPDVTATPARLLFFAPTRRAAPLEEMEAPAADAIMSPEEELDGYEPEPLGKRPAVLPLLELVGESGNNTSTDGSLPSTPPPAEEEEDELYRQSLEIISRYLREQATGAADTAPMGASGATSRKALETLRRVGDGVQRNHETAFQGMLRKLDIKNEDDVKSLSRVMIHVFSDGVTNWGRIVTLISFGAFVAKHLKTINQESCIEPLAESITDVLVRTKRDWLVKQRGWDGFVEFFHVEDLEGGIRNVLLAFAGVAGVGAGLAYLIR
- PROTOCOL SUMMARY: Protein-Protein Interaction Assay: MCL-1/Noxa BH3 Peptide (MCL-1 Assay)
Here the recorded pIC50 is given for each entry.
pIC50 here: minus log base 10 of the concentration, concentration in moles per litre.

Answered examples (4):
- COMPOUND: "CCc1c2c(nn1C)C(CCOC)OCCCCn1c(C(=O)O)c(CCCOc3cccc4cc(F)ccc34)c3ccc(Cl)c-2c31 (single isomer, unassigned; form 2) [US11440923, Example 43]"
  pIC50: 7.06
- COMPOUND: "CCc1c2c(nn1C)C1CCCCN1CCCCn1c(C(=O)O)c(CCCOc3cccc4ccccc34)c3ccc(Cl)c-2c31 (racemic) [US11440923, Example 102]"
  pIC50: 9.03
- COMPOUND: "CCc1c2c(nn1C)C(CCC1CCOCC1)OCCCCn1c(C(=O)O)c(CCCOc3cccc4cc(F)ccc34)c3ccc(Cl)c-2c31 (racemic) [US11440923, Example 60]"
  pIC50: 9.16
- COMPOUND: "CCc1c2c(nn1C)[C@@H](CCN1CCOCC1)OCCCCn1c(C(=O)O)c(CCCOc3cccc4cc(F)ccc34)c3ccc(Cl)c-2c31 [US11440923, Example 48]"
  pIC50: 8.44

// switching to the query compound
Task: Consider the compound CCc1c2c(nn1C)C(CCN1CC(F)(F)C1)OCCCCn1c(C(=O)O)c(CCCOc3cccc4cc(F)ccc34)c3ccc(Cl)c-2c31 (single isomer, unassigned) [US11440923, Example 78] and give its recorded pIC50.
Result: 9.38

---

- TARGET: Induced myeloid leukemia cell differentiation protein Mcl-1 [K194A,K197A,R201A] (Homo sapiens, UniProt Q07820, K194A/K197A/R201A)
- PROTOCOL SUMMARY: Protein-Protein Interaction Assay: MCL-1/Noxa BH3 Peptide (MCL-1 Assay)
OBSERVED PROPERTY: IC50
Please answer using a numeric value trailed by its unit.

Answered examples (2):
- COMPOUND: "CCc1c2c(nn1C)C(CCC(C)(C)O)OCCCCn1c(C(=O)O)c(CCCOc3cccc4cc(F)ccc34)c3ccc(Cl)c-2c31 (single isomer, unassigned; form 2) [US11440923, Example 76]"
  IC50: "90 nM"
- COMPOUND: "CCc1c2c(nn1C)C(C1CC1)OCCCCn1c(C(=O)O)c(CCCOc3cccc4cc(F)ccc34)c3ccc(Cl)c-2c31 (single isomer, unassigned; form 2) [US11440923, Example 40]"
  IC50: "48 nM"

Task: Consider the compound Cc1c2c(nn1C)C(C1CC1)OCCCCn1c(C(=O)O)c(CCCOc3cccc4ccccc34)c3ccc(Cl)c-2c31 (single isomer, unassigned; form 2) [US11440923, Example 36] and give its recorded IC50.
Result: 280 nM

Task: Consider the compound CCc1c2c(nn1C)C(C(F)(F)F)OCCCCn1c(C(=O)O)c(CCCOc3cccc4ccccc34)c3ccc(Cl)c-2c31 (single isomer, unassigned; form 1) [US11440923, Example 33] and give its recorded IC50.
Result: 2.1 nM

Task: Consider the compound CCc1c2c(nn1C)C(CC(C)(C)O)OCCCCn1c(C(=O)O)c(CCCOc3cccc4cc(F)ccc34)c3ccc(Cl)c-2c31 (single isomer, unassigned; form 1) [US11440923, Example 53] and give its recorded IC50.
Result: 0.41 nM
